Data provenance is patent US20250170248A1.

Catalogue of DC50 values
- ASSAYED_SYSTEM: SMARCA2 (Homo sapiens)
- TEST: SMARCA2 Western blot degradation in MV4-11 cells
- Type: cell-based
- Parameters: SMARCA2/SMARCA4 protein degradation selectivity in MV4-11 cells; endogenous in cells; host or cells: MV4-11
- RUN_PARAMETERS: MV4-11 cells, 24 h; read-out: SMARCA2 MSD MV411 degradation 24 h: Mean external-Abs DC50

molecule="Cc1ncsc1-c1ccc(CNC(=O)[C@@H]2C[C@@H](O)CN2C(=O)[C@@H](NC(=O)[C@H]2CCC3(CC2)C[C@H](N2CCC(c4ccc(N5CCN6c7cc(-c8ccccc8O)nnc7NC[C@H]6C5)nc4)CC2)C3)C(C)(C)C)cc1 (some centres unmarked) [I-94]" obs_value="1 to 10 nM"
molecule="Cc1ncsc1-c1ccc(CNC(=O)[C@@H]2C[C@@H](O)CN2C(=O)C(c2cc(OCCCCN3CCC(c4cnc(N5CCc6[nH]c7nnc(-c8ccccc8O)cc7c6[C@H]5C)nc4)CC3)no2)C(C)C)cc1 (some centres unmarked)" obs_value="1 to 10 nM"
molecule="C#Cc1ccc(CNC(=O)[C@@H]2C[C@@H](O)CN2C(=O)[C@@H](NC(=O)[C@H]2CCC3(CC2)C[C@H](N2CCN(c4cnc(N5CCN6c7cc(-c8ccccc8O)nnc7NC[C@H]6C5)nc4)CC24CC4)C3)C(C)(C)C)cc1 (some centres unmarked) [I-267]" obs_value="10 to 100 nM"
molecule="CC(C)C(C(=O)N1C[C@H](O)C[C@H]1C(=O)NCc1ccc(C#N)cc1)c1cc(N2CC3(CC(N4CCC(c5cnc(N6CCN7c8cc(-c9ccccc9O)nnc8NC[C@H]7C6)nc5)CC4)C3)C2)no1 (some centres unmarked)" obs_value="> 100 nM"
molecule="C#Cc1ccc(CNC(=O)[C@@H]2C[C@@H](O)CN2C(=O)[C@@H](NC(=O)[C@H]2CCC3(CC2)C[C@H](N2CCC(N4CC5(CC(N6CCN7c8cc(-c9ccccc9O)nnc8NC[C@H]7C6)C5)C4)CC2)C3)C(C)(C)C)cc1 (single isomer, unassigned) [I-223]" obs_value="1 to 10 nM"
molecule="C#Cc1ccc(CNC(=O)[C@@H]2C[C@@H](O)CN2C(=O)[C@@H](NC(=O)N2CC3(CC(N4CCC(c5cnc(N6CCc7[nH]c8nnc(-c9ccccc9O)cc8c7[C@H]6C)nc5)CC4)C3)C2)C(C)(C)CCO)c(Cl)c1 (single isomer, unassigned)" obs_value="1 to 10 nM"
molecule=Cc1ncsc1-c1ccc(CNC(=O)[C@@H]2C[C@@H](O)CN2C(=O)[C@@H](NC(=O)[C@H]2CC[C@@H](c3ccc(-c4cnc(N5CCN6c7cc(-c8ccccc8O)nnc7NC[C@H]6C5)nc4)cc3)CC2)C(C)(C)C)cc1 obs_value="< 1 nM"

Please state recorded DC50 (tested on SMARCA2 (Homo sapiens)) of C#Cc1ccc(CNC(=O)[C@@H]2C[C@@H](O)CN2C(=O)[C@@H](NC(=O)[C@H]2CC3(CC[C@H](N4CCN(c5cnc(N6CCc7[nH]c8nnc(-c9ccccc9O)cc8c7[C@H]6C)nc5)CC4)CC3)C2)C(C)(C)C)cc1 (single isomer, unassigned) [I-300]
10 to 100 nM

----------
- ASSAYED_SYSTEM: SMARCA2 (Homo sapiens, UniProt P51531)
- Sequence (P51531 whole entry): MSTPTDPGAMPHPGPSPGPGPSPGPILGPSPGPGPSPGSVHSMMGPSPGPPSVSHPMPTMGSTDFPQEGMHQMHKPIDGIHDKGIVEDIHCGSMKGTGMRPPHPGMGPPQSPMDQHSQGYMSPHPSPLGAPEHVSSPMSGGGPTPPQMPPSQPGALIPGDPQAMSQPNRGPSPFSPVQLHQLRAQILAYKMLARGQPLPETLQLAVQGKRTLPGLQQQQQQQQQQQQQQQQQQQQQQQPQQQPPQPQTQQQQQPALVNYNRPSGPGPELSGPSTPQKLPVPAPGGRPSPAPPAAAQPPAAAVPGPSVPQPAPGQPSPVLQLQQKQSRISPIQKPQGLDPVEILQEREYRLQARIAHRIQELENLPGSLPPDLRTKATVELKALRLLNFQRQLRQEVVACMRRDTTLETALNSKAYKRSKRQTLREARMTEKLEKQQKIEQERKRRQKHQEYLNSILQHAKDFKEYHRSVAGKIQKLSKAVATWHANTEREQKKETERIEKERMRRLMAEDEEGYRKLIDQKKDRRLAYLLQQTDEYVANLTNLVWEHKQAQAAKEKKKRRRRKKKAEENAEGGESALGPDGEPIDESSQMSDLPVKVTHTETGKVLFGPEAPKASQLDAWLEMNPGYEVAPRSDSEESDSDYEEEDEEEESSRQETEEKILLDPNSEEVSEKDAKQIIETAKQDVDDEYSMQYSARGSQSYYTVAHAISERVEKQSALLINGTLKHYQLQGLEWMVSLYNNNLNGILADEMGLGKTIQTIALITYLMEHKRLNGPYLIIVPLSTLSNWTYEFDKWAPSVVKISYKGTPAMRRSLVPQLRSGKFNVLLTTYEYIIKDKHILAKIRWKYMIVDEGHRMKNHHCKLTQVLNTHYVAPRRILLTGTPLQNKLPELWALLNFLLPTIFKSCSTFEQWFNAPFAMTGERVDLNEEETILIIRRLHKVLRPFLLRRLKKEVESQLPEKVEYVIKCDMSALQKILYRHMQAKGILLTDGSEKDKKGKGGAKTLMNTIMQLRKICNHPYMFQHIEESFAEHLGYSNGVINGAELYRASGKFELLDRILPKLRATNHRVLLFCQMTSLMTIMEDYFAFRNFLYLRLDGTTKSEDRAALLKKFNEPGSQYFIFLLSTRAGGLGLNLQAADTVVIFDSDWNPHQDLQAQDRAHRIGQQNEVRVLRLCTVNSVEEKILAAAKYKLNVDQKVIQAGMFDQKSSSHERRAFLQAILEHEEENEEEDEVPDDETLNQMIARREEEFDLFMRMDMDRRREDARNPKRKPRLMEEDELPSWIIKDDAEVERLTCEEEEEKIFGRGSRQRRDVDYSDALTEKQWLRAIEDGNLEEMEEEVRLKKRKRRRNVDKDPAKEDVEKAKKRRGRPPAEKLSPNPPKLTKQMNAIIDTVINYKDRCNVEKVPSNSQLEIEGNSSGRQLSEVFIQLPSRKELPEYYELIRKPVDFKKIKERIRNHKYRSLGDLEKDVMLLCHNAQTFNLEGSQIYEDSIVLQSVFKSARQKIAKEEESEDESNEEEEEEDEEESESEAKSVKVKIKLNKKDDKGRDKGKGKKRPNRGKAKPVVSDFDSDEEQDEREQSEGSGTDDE
- TEST: SMARCA2 Western blot degradation in MV4-11 cells
- Type: cell-based
- Parameters: SMARCA2/SMARCA4 protein degradation selectivity in MV4-11 cells; endogenous in cells; host or cells: MV4-11
- RUN_PARAMETERS: SMARCA2/4 selectivity, MV4-11 cells
MEASUREMENT_NAME: Selectivity in MV411

molecule="C#Cc1ccc([C@@H](C)NC(=O)[C@@H]2C[C@@H](O)CN2C(=O)C(c2cc(N3CCC(CN4CCC(N5CCC(N6CCN7c8cc(-c9ccccc9O)nnc8NC[C@H]7C6)CC5)CC4)CC3)no2)C(C)C)c(Cl)c1 (stereo partly shown)" obs_value="C (C (10-100 fold))"
molecule=C#Cc1ccc(CNC(=O)[C@@H]2C[C@@H](O)CN2C(=O)[C@@H](NC(=O)N2CCC(CN3CCC(N4CCC(N5CCc6[nH]c7nnc(-c8ccccc8O)cc7c6[C@H]5C)CC4)CC3)CC2)C(C)(C)C)cc1 obs_value="C (C (10-100 fold))"
molecule="C#Cc1ccc(CNC(=O)[C@@H]2C[C@@H](O)CN2C(=O)[C@@H](NC(=O)[C@H]2CCC3(CC2)C[C@H](N2CCC(N4CCC(N5CCN6c7cc(-c8ccccc8O)nnc7NC[C@H]6C5)CC4)CC2)C3)C(C)(C)C)c(Cl)c1 (single isomer, unassigned) [I-221]" obs_value="C (C (10-100 fold))"

----------
- ASSAYED_SYSTEM: SMARCA4 (Homo sapiens, UniProt P51532)
- Construct: SMARCA2/SMARCA4 protein degradation selectivity in MV4-11 cells; endogenous in cells; host or cells: MV4-11
- Sequence (P51532 whole entry): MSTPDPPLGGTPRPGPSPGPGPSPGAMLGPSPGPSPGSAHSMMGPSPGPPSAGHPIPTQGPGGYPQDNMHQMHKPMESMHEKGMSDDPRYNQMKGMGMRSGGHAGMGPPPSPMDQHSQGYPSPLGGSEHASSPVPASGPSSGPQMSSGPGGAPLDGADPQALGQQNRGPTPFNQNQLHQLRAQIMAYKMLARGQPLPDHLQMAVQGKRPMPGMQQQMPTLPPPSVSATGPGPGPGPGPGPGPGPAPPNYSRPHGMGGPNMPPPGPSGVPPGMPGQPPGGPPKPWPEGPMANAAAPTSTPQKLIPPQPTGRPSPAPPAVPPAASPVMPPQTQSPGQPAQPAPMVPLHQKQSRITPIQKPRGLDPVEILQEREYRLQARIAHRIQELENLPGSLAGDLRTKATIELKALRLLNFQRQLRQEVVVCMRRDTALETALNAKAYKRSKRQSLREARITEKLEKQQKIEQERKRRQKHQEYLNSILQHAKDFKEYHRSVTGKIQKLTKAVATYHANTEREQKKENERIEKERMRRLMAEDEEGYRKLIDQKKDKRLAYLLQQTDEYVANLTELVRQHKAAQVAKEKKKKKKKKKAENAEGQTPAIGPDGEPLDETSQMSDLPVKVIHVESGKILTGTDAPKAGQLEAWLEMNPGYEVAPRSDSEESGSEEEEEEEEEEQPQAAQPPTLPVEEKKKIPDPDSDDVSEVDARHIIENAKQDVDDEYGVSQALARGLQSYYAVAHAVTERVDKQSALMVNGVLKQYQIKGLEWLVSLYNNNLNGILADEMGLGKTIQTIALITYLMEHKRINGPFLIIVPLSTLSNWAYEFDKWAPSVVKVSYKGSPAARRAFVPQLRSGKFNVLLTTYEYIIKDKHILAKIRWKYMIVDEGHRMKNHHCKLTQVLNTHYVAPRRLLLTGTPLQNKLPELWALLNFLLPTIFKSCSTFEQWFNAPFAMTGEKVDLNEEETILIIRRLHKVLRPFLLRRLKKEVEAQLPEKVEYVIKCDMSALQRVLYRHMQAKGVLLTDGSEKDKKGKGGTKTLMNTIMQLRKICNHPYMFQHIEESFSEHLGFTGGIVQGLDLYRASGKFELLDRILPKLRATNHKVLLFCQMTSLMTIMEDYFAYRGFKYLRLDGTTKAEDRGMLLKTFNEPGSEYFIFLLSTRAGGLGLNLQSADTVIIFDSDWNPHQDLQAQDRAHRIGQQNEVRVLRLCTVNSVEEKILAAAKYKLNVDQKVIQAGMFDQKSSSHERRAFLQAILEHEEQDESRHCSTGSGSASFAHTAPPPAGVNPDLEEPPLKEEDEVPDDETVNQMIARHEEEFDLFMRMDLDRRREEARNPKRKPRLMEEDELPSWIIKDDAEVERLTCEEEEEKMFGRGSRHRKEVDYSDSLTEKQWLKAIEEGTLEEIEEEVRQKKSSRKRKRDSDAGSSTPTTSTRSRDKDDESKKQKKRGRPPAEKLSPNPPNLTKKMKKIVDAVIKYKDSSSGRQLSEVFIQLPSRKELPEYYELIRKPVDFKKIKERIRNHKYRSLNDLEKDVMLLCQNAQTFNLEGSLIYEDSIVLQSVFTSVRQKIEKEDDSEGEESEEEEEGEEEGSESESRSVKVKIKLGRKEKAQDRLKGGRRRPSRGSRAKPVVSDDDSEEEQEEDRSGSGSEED
- TEST: SMARCA4 Western blot degradation in MV4-11 cells
- Assay type: cell-based
- RUN_PARAMETERS: MV4-11, MV4-11 cells, 24 h; read-out: SMARCA4 MSD MV411 degradation 24 h: average Dmax %
Catalogue of Dmax values

The examples below pair each entry with its known result.
compound=C#Cc1ccc(CNC(=O)[C@@H]2C[C@@H](O)CN2C(=O)[C@@H](NC(=O)N2CCO[C@@H](CN3CCC(N4CCC(N5CCN6c7cc(-c8ccccc8O)nnc7NC[C@H]6C5)CC4)CC3)C2)C(C)(C)C)cc1 obs_value="< 50%"
compound="Cc1ncsc1-c1ccc(CNC(=O)[C@@H]2C[C@@H](O)CN2C(=O)C(c2cc(N3CC4(CC(N5CCC(c6cnc(N7CCc8[nH]c9nnc(-c%10ccccc%10O)cc9c8[C@@H]7C)nc6)CC5)C4)C3)no2)C(C)C)cc1 (stereo partly shown)" obs_value="> 90%"

State the recorded Dmax for this entry: C#Cc1ccc(C2(NC(=O)[C@@H]3C[C@@H](O)CN3C(=O)[C@@H](NC(=O)[C@H]3CC4(C3)C[C@H](N3CCC(N5CCC(N6CCN7c8cc(-c9ccccc9O)nnc8NC[C@H]7C6)CC5)CC3)C4)C(C)(C)C)CC2)cc1 (single isomer, unassigned)
< 50%

And for `C#Cc1ccc(CNC(=O)[C@@H]2C[C@@H](O)CN2C(=O)[C@H](NC(=O)N2CC3(CC(N4CCC(c5cnc(N6CCc7[nH]c8nnc(-c9ccccc9O)cc8c7[C@H]6C)nc5)CC4)C3)C2)C(C)(C)CCN2CCN[C@H](C(=O)O)C2)cc1` ?
< 50%

----------
- ASSAYED_SYSTEM: SMARCA4 (Homo sapiens, UniProt P51532)
- Construct: SMARCA2/SMARCA4 protein degradation selectivity in MV4-11 cells; endogenous in cells; host or cells: MV4-11
- TEST: SMARCA4 Western blot degradation in MV4-11 cells
- Assay type: cell-based
- RUN_PARAMETERS: MV4-11, MV4-11 cells, 24 h; read-out: SMARCA4 MSD MV411 degradation 24 h: average Dmax %
MEASUREMENT_NAME: Dmax

compound="C#Cc1ccc([C@H](C)NC(=O)[C@@H]2C[C@@H](O)CN2C(=O)[C@@H](c2cc(OCCN3CCC(N4CCC(N5CCC(CN6CCN7c8cc(-c9ccccc9O)nnc8NC[C@H]7C6)CC5)CC4)CC3)no2)C(C)C)cc1 (single isomer, unassigned)" obs_value="< 50%"

State the recorded Dmax for this entry: C#Cc1ccc(CNC(=O)[C@@H]2C[C@@H](O)CN2C(=O)[C@@H](NC(=O)[C@H]2CCC3(CC2)C[C@H](N2CCN(c4cnc(N5CCN6c7cc(-c8ccccc8O)nnc7NC[C@H]6C5)nc4)CC2)C3)C(C)(C)CCO)c(Cl)c1 (single isomer, unassigned)
70 to 90%

And for `CC#Cc1ccc(CNC(=O)[C@@H]2C[C@@H](O)CN2C(=O)[C@@H](NC(=O)N2CC3(CC(N4CCC(c5cnc(N6CCc7[nH]c8nnc(-c9ccccc9O)cc8c7[C@H]6C)nc5)CC4)C3)C2)C(C)(C)C)cc1` ?
< 50%

And for C#Cc1ccc(CNC(=O)[C@@H]2C[C@@H](O)CN2C(=O)[C@@H](NC(=O)C2CCC3(CC2)CC(N2CCC(c4ccc(N5CCN6c7cc(-c8ccccc8O)nnc7NC[C@H]6C5)cc4)CC2)C3)C(C)(C)C)cc1 (some centres unmarked) ?
< 50%

----------
Catalogue of DC50 values
- ASSAYED_SYSTEM: UniProt:P51531
- TEST: SMARCA2 Western blot degradation in MV4-11 cells
- Assay type: cell-based
- Set-up: SMARCA2/SMARCA4 protein degradation selectivity in MV4-11 cells; endogenous in cells; host or cells: MV4-11
- RUN_PARAMETERS: MV4-11 cells, 24 h; read-out: SMARCA2 MSD MV411 degradation 24 h: Mean external-Abs DC50

compound=C#Cc1ccc(CNC(=O)[C@@H]2C[C@@H](O)CN2C(=O)[C@@H](NC(=O)N2CCN(C[C@H]3CC[C@@H](N4CCc5[nH]c6nnc(-c7ccccc7O)cc6c5[C@H]4C)CC3)CC2)C(C)(C)C)cc1 assayed_system=UniProt:P51531 measurement_name=DC50 obs_value="10 to 100 nM"
compound="C#CCOc1cc(C(C(=O)N2C[C@H](O)C[C@H]2C(=O)NCc2ccc(-c3scnc3C)cc2O[C@H]2CC[C@H](N3CCC(c4cnc(N5CCc6[nH]c7nnc(-c8ccccc8O)cc7c6[C@@H]5C)nc4)CC3)CC2)C(C)C)on1 (single isomer, unassigned)" assayed_system=UniProt:P51531 measurement_name=DC50 obs_value="10 to 100 nM"
compound=C#Cc1cc(O)c(CNC(=O)[C@@H]2C[C@@H](O)CN2C(=O)[C@@H](NC(=O)N2CC3(CC(N4CCC(c5cnc(N6CCc7[nH]c8nnc(-c9ccccc9O)cc8c7[C@H]6C)nc5)CC4)C3)C2)C(C)(C)C)c(Cl)c1 assayed_system=UniProt:P51531 measurement_name=DC50 obs_value="> 100 nM"

API: the following record is the query input.
State the recorded DC50 for this entry: Cc1ncsc1-c1ccc(CNC(=O)[C@@H]2C[C@@H](O)CN2C(=O)[C@@H](NC(=O)N2CC3(CCC(N4CCC(c5cnc(N6CCc7[nH]c8nnc(-c9ccccc9O)cc8c7C6C)nc5)CC4)CC3)C2)C(C)(C)C)cc1 (stereo partly shown)
> 100 nM
